Tested on: NaV1.6 (Homo sapiens (Human), UniProt Q9UQD0)
Sequence (Q9UQD0 whole entry, looked up): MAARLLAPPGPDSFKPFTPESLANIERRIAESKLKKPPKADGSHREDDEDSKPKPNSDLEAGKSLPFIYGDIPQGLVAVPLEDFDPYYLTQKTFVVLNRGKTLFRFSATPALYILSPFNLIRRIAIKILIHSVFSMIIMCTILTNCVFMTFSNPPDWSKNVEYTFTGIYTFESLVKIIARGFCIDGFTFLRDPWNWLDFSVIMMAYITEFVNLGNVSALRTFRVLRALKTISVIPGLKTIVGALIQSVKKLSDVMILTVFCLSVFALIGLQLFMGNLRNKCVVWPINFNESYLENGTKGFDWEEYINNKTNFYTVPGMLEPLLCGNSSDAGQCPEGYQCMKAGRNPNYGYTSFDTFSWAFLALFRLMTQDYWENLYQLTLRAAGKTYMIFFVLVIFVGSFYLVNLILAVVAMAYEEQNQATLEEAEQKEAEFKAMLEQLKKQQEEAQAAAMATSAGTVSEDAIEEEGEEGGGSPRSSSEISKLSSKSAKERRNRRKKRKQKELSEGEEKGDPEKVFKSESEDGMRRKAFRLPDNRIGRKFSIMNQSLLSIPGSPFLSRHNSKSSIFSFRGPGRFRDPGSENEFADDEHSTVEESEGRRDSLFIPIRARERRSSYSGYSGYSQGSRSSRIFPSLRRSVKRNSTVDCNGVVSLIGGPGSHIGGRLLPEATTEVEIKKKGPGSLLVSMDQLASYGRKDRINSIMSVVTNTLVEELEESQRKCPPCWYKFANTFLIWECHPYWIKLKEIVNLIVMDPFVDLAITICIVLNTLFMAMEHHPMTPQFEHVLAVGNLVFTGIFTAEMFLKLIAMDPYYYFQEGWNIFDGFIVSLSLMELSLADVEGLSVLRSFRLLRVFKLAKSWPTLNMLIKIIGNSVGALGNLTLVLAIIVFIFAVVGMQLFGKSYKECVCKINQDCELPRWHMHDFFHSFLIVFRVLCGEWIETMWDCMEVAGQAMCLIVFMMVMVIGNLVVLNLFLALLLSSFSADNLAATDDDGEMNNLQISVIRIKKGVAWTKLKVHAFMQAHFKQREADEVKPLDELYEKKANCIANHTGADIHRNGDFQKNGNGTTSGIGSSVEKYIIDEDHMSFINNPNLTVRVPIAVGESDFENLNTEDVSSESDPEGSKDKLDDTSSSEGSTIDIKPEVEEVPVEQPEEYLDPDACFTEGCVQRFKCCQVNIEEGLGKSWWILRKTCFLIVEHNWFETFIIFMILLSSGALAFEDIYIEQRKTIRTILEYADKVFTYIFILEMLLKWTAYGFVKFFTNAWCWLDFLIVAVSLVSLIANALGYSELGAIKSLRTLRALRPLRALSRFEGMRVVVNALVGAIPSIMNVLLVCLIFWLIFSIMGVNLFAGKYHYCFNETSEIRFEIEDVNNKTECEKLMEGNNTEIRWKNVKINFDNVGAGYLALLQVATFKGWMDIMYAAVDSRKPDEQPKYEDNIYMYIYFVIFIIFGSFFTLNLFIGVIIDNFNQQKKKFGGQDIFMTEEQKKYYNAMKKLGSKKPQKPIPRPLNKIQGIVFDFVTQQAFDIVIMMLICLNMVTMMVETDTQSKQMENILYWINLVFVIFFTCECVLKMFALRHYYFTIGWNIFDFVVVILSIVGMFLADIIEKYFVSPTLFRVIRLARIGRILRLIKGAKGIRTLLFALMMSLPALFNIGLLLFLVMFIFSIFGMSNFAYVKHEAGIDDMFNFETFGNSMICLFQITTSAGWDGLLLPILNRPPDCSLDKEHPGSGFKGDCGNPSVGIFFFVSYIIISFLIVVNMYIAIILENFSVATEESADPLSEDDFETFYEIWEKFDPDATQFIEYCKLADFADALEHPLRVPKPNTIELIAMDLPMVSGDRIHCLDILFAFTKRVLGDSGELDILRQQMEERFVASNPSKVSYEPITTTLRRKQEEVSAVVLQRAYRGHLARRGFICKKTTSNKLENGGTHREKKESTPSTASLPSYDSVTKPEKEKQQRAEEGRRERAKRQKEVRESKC
Sequence (Q07699 whole entry partner, looked up): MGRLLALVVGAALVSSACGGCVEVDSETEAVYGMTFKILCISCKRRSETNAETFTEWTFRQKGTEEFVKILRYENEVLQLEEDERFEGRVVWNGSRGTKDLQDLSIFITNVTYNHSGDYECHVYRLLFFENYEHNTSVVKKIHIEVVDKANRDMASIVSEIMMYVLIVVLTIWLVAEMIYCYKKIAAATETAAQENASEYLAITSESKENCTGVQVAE
Test name: Sodium Influx Assay (Flux), NaV1.6;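 also: Tetracycline-induced cells, compounds applied for one hour at room temperature with modulators holding channels open, IC50 from percent inhibition of sodium influx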
Type: cell-based
Applied conditions: Trex HEK293 cells, ANG2 dye, inactivated state
pIC50: −log10 of the molar value. Where a name gives a salt, the structure may show the parent alone.

# Compound, pIC50
rows = [
    ("O=S(=O)(Nc1nccs1)c1cc(Cl)c(OCc2ccccc2F)cc1F", 5.78),
    ("O=S(=O)(Nc1cscn1)c1c(F)cc(NCc2c(F)cccc2CN2CC(F)C2)cc1F [Example 194, formate]", 6.64),
    ("O=S(=O)(Nc1cccc(F)n1)c1cc(Cl)c(NCc2cccc3ccncc23)cc1F", 6.86),
    ("O=S(=O)(Nc1cscn1)c1cc(Cl)c(NCc2c(F)cccc2CN2CC(F)C2)cc1F", 5.21),
    ("O=S(=O)(Nc1cccc(F)n1)c1cc(Cl)c(N[C@H](CN2CCCC2)c2ccccc2)cc1F [Example 72, 2,2,2-trifluoroacetate]", 5.15),
    ("O=S(=O)(Nc1cnsc1)c1c(F)cc(NCc2c(F)cccc2CN2CCC2)cc1F", 5.22),
    ("O=S(=O)(Nc1ccon1)c1c(F)cc(NCc2c(F)cccc2CN2CCC2)cc1F [Example 204, 2,2,2-trifluoroacetate]", 6.73),
    ("CN(Cc1cccc(F)c1CNc1cc(F)c(S(=O)(=O)Nc2cscn2)c(F)c1)C1COC1 [Example 181, formate]", 5.53),
    ("C[C@H](Nc1cc(F)c(S(=O)(=O)Nc2nccs2)cc1Cl)c1cc(F)ccc1F", 7.46),
    ("CC1(C)CCN1Cc1cccc(Cl)c1CNc1cc(F)c(S(=O)(=O)Nc2cscn2)c(F)c1 [Example 199, formate]", 6.67),
    ("C[C@H](Nc1cc(F)c(S(=O)(=O)Nc2cccc(F)n2)cc1Cl)c1ccccc1F", 5.89),
    ("C[C@H](Oc1cc(F)c(S(=O)(=O)Nc2nccs2)cc1Cl)c1ccccc1F", 6.32),
    ("CN(Cc1cccc(F)c1CNc1cc(F)c(S(=O)(=O)Nc2cscn2)c(F)c1)CC1CC1 [Example 187, formate]", 7.19),
    ("C[C@H](c1cccc(F)c1CNc1cc(F)c(S(=O)(=O)Nc2cscn2)c(F)c1)N1CCC1 [Example 279, formate]", 6.79),
    ("C[C@H](Oc1ccc(S(=O)(=O)Nc2nccs2)c(F)c1Cl)c1ccccc1F", 6.34),
    ("O=S(=O)(Nc1cscn1)c1cc(Cl)c(NCc2c(F)cccc2CN2CCC(F)(F)CC2)cc1F", 5.43),
    ("CCC(Nc1ccc(S(=O)(=O)Nc2ncns2)cc1Cl)c1ccccc1 (centres unmarked)", 6.97),
    ("C[C@H](Nc1cc(F)c(S(=O)(=O)Nc2cscn2)cc1Cl)c1cc(Cl)ccc1F", 6.11),
    ("O=S(=O)(Nc1cccnn1)c1c(F)cc(NCc2c(F)cccc2CN2CCC2)cc1F [Example 333, formate]", 6.59),
    ("C[C@H](Nc1cc(F)c(S(=O)(=O)Nc2ncc(Cl)s2)cc1Cl)c1ccccc1F", 6.02),
    ("O=S(=O)(Nc1cscn1)c1c(F)cc(NCc2c(F)cccc2CN2CC3(C2)CC3(F)F)cc1F", 6.54),
    ("C[C@H](Nc1cc(F)c(S(=O)(=O)Nc2nccs2)cc1Cl)c1cccc(Cl)c1", 6.77),
    ("CCC(Nc1cc(F)c(S(=O)(=O)Nc2ncns2)cc1F)c1ccccc1 (centres unmarked)", 6.97),
    ("O=S(=O)(Nc1cscn1)c1cc(Cl)c(N[C@H](c2cc(F)ccc2F)C(F)F)cc1F", 6.41),
    ("CN(C)Cc1cccc(F)c1CNc1cc(F)c(S(=O)(=O)Nc2cscn2)cc1Cl [Example 249, 2,2,2-trifluoroacetate]", 6.79),
    ("C[C@H](Oc1cc(F)c(S(=O)(=O)Nc2cscn2)cc1Cl)c1c(F)cccc1F", 5.86),
    ("C[C@H]1CCCN1Cc1cccc(F)c1CNc1cc(F)c(S(=O)(=O)Nc2cscn2)c(F)c1 [Example 158, formate]", 6.90),
    ("Cc1cc(NCc2ccccc2CN2CCC2)c(F)c(F)c1S(=O)(=O)Nc1cscn1 [Example 312, 2,2,2-trifluoroacetate]", 6.87),
    ("O=S(=O)(Nc1nccs1)c1ccc(N[C@H](c2ccccc2)C(F)(F)F)c(Cl)c1 [Example 4, formate]", 6.10),
    ("CCC(Nc1cc(F)c(S(=O)(=O)Nc2nccs2)cc1Cl)c1cccnc1 (centres unmarked)", 6.82),
    ("C[C@H](Nc1ccc(S(=O)(=O)Nc2nccs2)c(F)c1Cl)c1ccccc1F", 6.74),
    ("C[C@H](Nc1cc(F)c(S(=O)(=O)Nc2cscn2)cc1Cl)c1cc(C#N)ccc1F", 6.02),
]
